Listed binders paired with reported Kd
tested.system: His-GABARAPL2 (human, UniProt P60520 1-117)
Sequence (P60520 whole entry): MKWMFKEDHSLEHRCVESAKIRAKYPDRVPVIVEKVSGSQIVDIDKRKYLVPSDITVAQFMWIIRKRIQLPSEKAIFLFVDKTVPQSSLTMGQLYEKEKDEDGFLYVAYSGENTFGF
test.name: ITC; 0.6 mM peptide titrated into 0.06 mM His-LC3/GABARAP protein in 20 steps at 25 °C; 50 mM Tris pH 7.0, 25 mM NaCl; one-site binding model
condition.set: both partners purified

- binder: "DEDPETSWILLN (source: synthetic peptide (GenScript)) [hEPG5-LIR2 peptide]"
  Kd: "0.68 µM"

Now for another entry.
*Q* Fill blank: measured Kd of the binder GSGTWTLVDEG (human EPG5 residues 546-556, holding the LIR1 motif 550WTLV553; source: synthetic peptide (LifeTein)) [hEPG5-LIR1 peptide] is ____.
*A* 11.8 µM
